- Test system: PC-3 (human prostate carcinoma cancer cell line)
- Assay type: cell-based
- REPORTED_CONDITIONS: 24 h
Where a SMILES comes first, the peptide text is derived from it.
MEASURED_PARAMETER: IC50 (nM)

1) CC[C@H](C)[C@H](NC(=O)[C@H](CCCCN)NC(=O)[C@H](CCCCN)NC(=O)[C@H](Cc1c[nH]c2ccccc12)NC(=O)[C@H](CC(C)C)NC(=O)CN)C(=O)N[C@@H](CCCCN)C(=O)N[C@@H](CC(N)=O)C(=O)N[C@H](C(=O)N[C@@H](C)C(=O)N[C@@H](CCCCN)C(=O)N[C@@H](C)C(=O)N[C@@H](C)C(=O)NCC(=O)N[C@@H](CCCCN)C(=O)N[C@@H](C)C(=O)N[C@@H](C)C(=O)N[C@@H](CC(C)C)C(=O)NCC(=O)N[C@@H](C)C(=O)N[C@@H](CC(C)C)C(N)=O)C(C)C [t-DPH1-5K] (H-GLWKKIKNVAKAAGKAALGAL-NH2) = 2600

====

- Test system: HaCaT (human keratinocyte cell)
- Type: cell-based
- REPORTED_CONDITIONS: 24 h
Where a SMILES comes first, the peptide text is derived from it.
MEASURED_PARAMETER: IC50 against HaCaT

1) CC[C@H](C)[C@H](NC(=O)[C@H](CCCCN)NC(=O)[C@H](CCCCN)NC(=O)[C@H](Cc1c[nH]c2ccccc12)NC(=O)[C@H](CC(C)C)NC(=O)CN)C(=O)N[C@@H](CCCCN)C(=O)N[C@@H](CC(N)=O)C(=O)N[C@H](C(=O)N[C@@H](C)C(=O)N[C@@H](CCCCN)C(=O)N[C@@H](C)C(=O)N[C@@H](C)C(=O)NCC(=O)N[C@@H](CCCCN)C(=O)N[C@@H](C)C(=O)N[C@@H](C)C(=O)N[C@@H](CC(C)C)C(=O)NCC(=O)N[C@@H](C)C(=O)N[C@@H](CC(C)C)C(N)=O)C(C)C [t-DPH1-5K] (H-GLWKKIKNVAKAAGKAALGAL-NH2) = 3.332 µM

====

- Tested on: PC-3 (human prostate carcinoma cancer cell line)
- Type: cell-based
- REPORTED_CONDITIONS: 24 h
- Procedure: The MTT assay was conducted to verify the proliferation inhibitory effect of t-DPH1 and its analogues. […] Then, the solution in each well was removed and 100 μL of DMSO were added and then the plate was shaken for 10 min on a shaking incubator before detecting the OD value by use of a Synergy HT plate reader (BioTek, Minneapolis, MN, USA) at λ = 570 nm.
pIC50: −log10 of the molar value. Where a SMILES comes first, the peptide text is derived from it.
MEASURED_PARAMETER: pIC50

1) CC[C@H](C)[C@H](NC(=O)[C@H](CCCCN)NC(=O)[C@H](CO)NC(=O)[C@H](Cc1c[nH]c2ccccc12)NC(=O)[C@H](CC(C)C)NC(=O)CN)C(=O)N[C@@H](CCCCN)C(=O)N[C@@H](CC(N)=O)C(=O)N[C@H](C(=O)N[C@@H](C)C(=O)N[C@@H](C)C(=O)N[C@@H](C)C(=O)N[C@@H](C)C(=O)NCC(=O)N[C@@H](CCCCN)C(=O)N[C@@H](C)C(=O)N[C@@H](C)C(=O)N[C@@H](CC(C)C)C(=O)NCC(=O)N[C@@H](C)C(=O)N[C@@H](CC(C)C)C(N)=O)C(C)C [t-DPH1] (H-GLWSKIKNVAAAAGKAALGAL-NH2) = 4.83
2) CC[C@H](C)[C@H](NC(=O)[C@H](CCCCN)NC(=O)[C@H](CCCCN)NC(=O)[C@H](Cc1c[nH]c2ccccc12)NC(=O)[C@H](CC(C)C)NC(=O)CN)C(=O)N[C@@H](CCCCN)C(=O)N[C@@H](CC(N)=O)C(=O)N[C@H](C(=O)N[C@@H](C)C(=O)N[C@@H](CCCCN)C(=O)N[C@@H](C)C(=O)N[C@@H](C)C(=O)NCC(=O)N[C@@H](CCCCN)C(=O)N[C@@H](C)C(=O)N[C@@H](C)C(=O)N[C@@H](CCCCN)C(=O)NCC(=O)N[C@@H](C)C(=O)N[C@@H](CC(C)C)C(N)=O)C(C)C [t-DPH1-6K] (H-GLWKKIKNVAKAAGKAAKGAL-NH2) = 4.25
3) CC[C@H](C)[C@H](NC(=O)[C@H](CCCCN)NC(=O)[C@H](CCCCN)NC(=O)[C@H](Cc1c[nH]c2ccccc12)NC(=O)[C@H](CC(C)C)NC(=O)CN)C(=O)N[C@@H](CCCCN)C(=O)N[C@@H](CC(N)=O)C(=O)N[C@H](C(=O)N[C@@H](C)C(=O)N[C@@H](C)C(=O)N[C@@H](C)C(=O)N[C@@H](C)C(=O)NCC(=O)N[C@@H](CCCCN)C(=O)N[C@@H](C)C(=O)N[C@@H](C)C(=O)N[C@@H](CC(C)C)C(=O)NCC(=O)N[C@@H](C)C(=O)N[C@@H](CC(C)C)C(N)=O)C(C)C [t-DPH1-K4] (H-GLWKKIKNVAAAAGKAALGAL-NH2) = 4.72

====

- Test system: HaCaT (human keratinocyte cell)
- Format: cell-based
- REPORTED_CONDITIONS: 24 h
Where a SMILES comes first, the peptide text is derived from it.
MEASURED_PARAMETER: IC50 against HaCaT

1) CC[C@H](C)[C@H](NC(=O)[C@H](CCCCN)NC(=O)[C@H](CCCCN)NC(=O)[C@H](Cc1c[nH]c2ccccc12)NC(=O)[C@H](CC(C)C)NC(=O)CN)C(=O)N[C@@H](CCCCN)C(=O)N[C@@H](CC(N)=O)C(=O)N[C@H](C(=O)N[C@@H](C)C(=O)N[C@@H](C)C(=O)N[C@@H](C)C(=O)N[C@@H](C)C(=O)NCC(=O)N[C@@H](CCCCN)C(=O)N[C@@H](C)C(=O)N[C@@H](C)C(=O)N[C@@H](CC(C)C)C(=O)NCC(=O)N[C@@H](C)C(=O)N[C@@H](CC(C)C)C(N)=O)C(C)C [t-DPH1-K4] (H-GLWKKIKNVAAAAGKAALGAL-NH2) = 63.37 µM
2) CC[C@H](C)[C@H](NC(=O)[C@H](CCCCN)NC(=O)[C@H](CCCCN)NC(=O)[C@H](Cc1c[nH]c2ccccc12)NC(=O)[C@H](CC(C)C)NC(=O)CN)C(=O)N[C@@H](CCCCN)C(=O)N[C@@H](CC(N)=O)C(=O)N[C@H](C(=O)N[C@@H](C)C(=O)N[C@@H](CCCCN)C(=O)N[C@@H](C)C(=O)N[C@@H](C)C(=O)NCC(=O)N[C@@H](CCCCN)C(=O)N[C@@H](C)C(=O)N[C@@H](C)C(=O)N[C@@H](CCCCN)C(=O)NCC(=O)N[C@@H](C)C(=O)N[C@@H](CC(C)C)C(N)=O)C(C)C [t-DPH1-6K] (H-GLWKKIKNVAKAAGKAAKGAL-NH2) = 151.4 µM
3) CC[C@H](C)[C@H](NC(=O)[C@H](CCCCN)NC(=O)[C@H](CO)NC(=O)[C@H](Cc1c[nH]c2ccccc12)NC(=O)[C@H](CC(C)C)NC(=O)CN)C(=O)N[C@@H](CCCCN)C(=O)N[C@@H](CC(N)=O)C(=O)N[C@H](C(=O)N[C@@H](C)C(=O)N[C@@H](C)C(=O)N[C@@H](C)C(=O)N[C@@H](C)C(=O)NCC(=O)N[C@@H](CCCCN)C(=O)N[C@@H](C)C(=O)N[C@@H](C)C(=O)N[C@@H](CC(C)C)C(=O)NCC(=O)N[C@@H](C)C(=O)N[C@@H](CC(C)C)C(N)=O)C(C)C [t-DPH1] (H-GLWSKIKNVAAAAGKAALGAL-NH2) = 175.6 µM

====

- Tested on: HMEC-1 (human microvascular endothelial cell line)
- Type: cell-based
- REPORTED_CONDITIONS: 24 h
Where a SMILES comes first, the peptide text is derived from it.
Parameter IC50 against HMEC-1: see the listing below.
MEASURED_PARAMETER: IC50 against HMEC-1 (µM)

1) CC[C@H](C)[C@H](NC(=O)[C@H](CCCCN)NC(=O)[C@H](CCCCN)NC(=O)[C@H](Cc1c[nH]c2ccccc12)NC(=O)[C@H](CC(C)C)NC(=O)CN)C(=O)N[C@@H](CCCCN)C(=O)N[C@@H](CC(N)=O)C(=O)N[C@H](C(=O)N[C@@H](C)C(=O)N[C@@H](CCCCN)C(=O)N[C@@H](C)C(=O)N[C@@H](C)C(=O)NCC(=O)N[C@@H](CCCCN)C(=O)N[C@@H](C)C(=O)N[C@@H](C)C(=O)N[C@@H](CCCCN)C(=O)NCC(=O)N[C@@H](C)C(=O)N[C@@H](CC(C)C)C(N)=O)C(C)C [t-DPH1-6K] (H-GLWKKIKNVAKAAGKAAKGAL-NH2) = 340.2
2) CC[C@H](C)[C@H](NC(=O)[C@H](CCCCN)NC(=O)[C@H](CO)NC(=O)[C@H](Cc1c[nH]c2ccccc12)NC(=O)[C@H](CC(C)C)NC(=O)CN)C(=O)N[C@@H](CCCCN)C(=O)N[C@@H](CC(N)=O)C(=O)N[C@H](C(=O)N[C@@H](C)C(=O)N[C@@H](C)C(=O)N[C@@H](C)C(=O)N[C@@H](C)C(=O)NCC(=O)N[C@@H](CCCCN)C(=O)N[C@@H](C)C(=O)N[C@@H](C)C(=O)N[C@@H](CC(C)C)C(=O)NCC(=O)N[C@@H](C)C(=O)N[C@@H](CC(C)C)C(N)=O)C(C)C [t-DPH1] (H-GLWSKIKNVAAAAGKAALGAL-NH2) = 29.85
3) CC[C@H](C)[C@H](NC(=O)[C@H](CCCCN)NC(=O)[C@H](CCCCN)NC(=O)[C@H](Cc1c[nH]c2ccccc12)NC(=O)[C@H](CC(C)C)NC(=O)CN)C(=O)N[C@@H](CCCCN)C(=O)N[C@@H](CC(N)=O)C(=O)N[C@H](C(=O)N[C@@H](C)C(=O)N[C@@H](CCCCN)C(=O)N[C@@H](C)C(=O)N[C@@H](C)C(=O)NCC(=O)N[C@@H](CCCCN)C(=O)N[C@@H](C)C(=O)N[C@@H](C)C(=O)N[C@@H](CC(C)C)C(=O)NCC(=O)N[C@@H](C)C(=O)N[C@@H](CC(C)C)C(N)=O)C(C)C [t-DPH1-5K] (H-GLWKKIKNVAKAAGKAALGAL-NH2) = 3.897
4) CC[C@H](C)[C@H](NC(=O)[C@H](CCCCN)NC(=O)[C@H](CCCCN)NC(=O)[C@H](Cc1c[nH]c2ccccc12)NC(=O)[C@H](CC(C)C)NC(=O)CN)C(=O)N[C@@H](CCCCN)C(=O)N[C@@H](CC(N)=O)C(=O)N[C@H](C(=O)N[C@@H](C)C(=O)N[C@@H](C)C(=O)N[C@@H](C)C(=O)N[C@@H](C)C(=O)NCC(=O)N[C@@H](CCCCN)C(=O)N[C@@H](C)C(=O)N[C@@H](C)C(=O)N[C@@H](CC(C)C)C(=O)NCC(=O)N[C@@H](C)C(=O)N[C@@H](CC(C)C)C(N)=O)C(C)C [t-DPH1-K4] (H-GLWKKIKNVAAAAGKAALGAL-NH2) = 46.02
